molecules and their reported TGI
- Tested on: SK-OV-3 ovarian
- assay-name: NCI tumour cell line growth inhibition, 48 h
property-name: TGI

1) Clc1cccc(Cl)c1C=NC12CC3CC(CC(C3)C1)C2 | > 10 µM
2) CC(=O)OC1c2ccccc2CC2(OC(C)=O)c3ccccc3C12 (stereo not given) | > 100 µM
3) COc1cccc(C2=C(c3cn(C)c4ccccc34)C(=O)NC2=O)c1 | > 25 µM
4) O=C1c2ccccc2C(=O)N1CC1(C(=O)O)NCCS1(=O)=O (stereo not given) | > 100 µM
5) CC(C)c1ccccc1SC1CC(=O)CC(Sc2ccccc2C(C)C)C12O[C@H](c1ccccc1)[C@@H](c1ccccc1)O2 (stereo not given in full) | > 100 µM

----------
- System: ACHN renal
- assay-name: NCI tumour cell line growth inhibition, 48 h
Here, each record is paired with measured TGI data.
property-name: TGI

1) Fc1cc(C2=C[C@H](c3ccc(Cl)cc3)NC(=S)N2)c(Cl)cc1Cl | > 100 µM
2) CC12CCC=CC1CCC1C2CCC2(C)C(c3ccc(=O)oc3)CCC12O (stereo unspecified) | 0.128 µM
3) Cn1c(O)c(C(=O)Nc2cccs2)c(=O)[nH]c1=S | 43.7 µM
4) CC1(Sc2ccccc2)CN(Cc2ccccc2)C1=O (stereo unspecified) | > 100 µM
5) c1csc(-c2cscc2-c2ccsc2)c1 | > 100 µM
6) COc1ccc(/C=C2/C(C)=NN(c3cccc(Cl)c3)/C2=N/c2nc3ccccc3s2)cc1 | 42.2 µM
7) O=C(NC(C(F)(F)F)(C(F)(F)F)P(=O)(c1ccccc1)c1ccccc1)C(C(F)(F)F)C(F)(F)F | 30.9 µM
8) COc1ccc2c(c1)CCC1C2CCC2(C)C1CCC2(O)CNC(=O)CCCCC1CCSS1 (stereo unspecified) | > 100 µM
9) CC1CC2C(=O)NC(=O)C2c2[nH]c3ccccc3c21 (stereo unspecified) | > 100 µM
10) O=S(=O)(c1ccc(NC(=S)NCc2cccnc2)cc1)N1CCCCC1 | > 100 µM
11) Fc1ccc(-c2nc3n(c2-c2ccncc2)CCS3)cc1 | > 25 µM

----------
- System: K-562 leukemia
- assay-name: NCI tumour cell line growth inhibition, 48 h
Listing of recorded TGI by entry.
property-name: TGI

1. Fc1ccc2[nH]cc(Cc3c[nH]c4ccc(F)cc34)c2c1 | > 100 µM
2. C[C@H]1[C@H](C)N(Cc2ccccc2)P(=O)(C(O)/C=C/c2ccccc2)N1Cc1ccccc1 (stereo not given in full) | > 25 µM
3. CC12CCC(=O)C=C1CCC1C2CCC2(C)C(C(=O)Cn3cnc4c(=S)nc[nH]c43)CCC12 (stereo not given) | > 100 µM
4. C/C(=N\N)C(CN(C)C)C(c1ccccc1)c1c(O)c2ccccc2oc1=O (stereo not given) | > 100 µM
5. NC(=O)OCC(COc1ccc(Cl)cc1)OC(=O)c1ccccc1Cl (stereo not given) | 39.4 µM

----------
Each entry below carries its recorded TGI.
- System: HCC-2998 colon
- assay-name: NCI tumour cell line growth inhibition, 48 h
property-name: TGI (µM)

1) C=C(C)[C@@H]1CC[C@]2(C(=O)NCCCN)CC[C@]3(C)[C@H](CC[C@@H]4[C@@]5(C)CC[C@H](O)C(C)(C)[C@@H]5CC[C@]43C)[C@@H]12 | 77.1
2) Fc1ccc2[nH]cc(Cc3c[nH]c4ccc(F)cc34)c2c1 | 30.3

----------
- Tested on: OVCAR-8 ovarian
- assay-name: NCI tumour cell line growth inhibition, 48 h; in the data active means GI50 below about 0.43 µM; inactive means the rest
Outcomes: y for active, n for inactive

1) CCOC(=O)Cc1c[nH]c(=S)[nH]c1=O | n
2) OCC1OC(n2ccc3c2ncn2ncnc32)C(O)C1O (stereo not drawn) | y
3) Nc1ncnc2sc(=S)c3c(c12)CCC3 | n
4) N#CC(C#N)=CN1CCN(C(=O)c2ccco2)C1=S | n
5) CN(C)CCNC(=O)c1cccn2c(=O)c3cc4ccccc4cc3nc12 | y
6) C=CCC(N[C@H](CO)C(C)C)c1cn(C(=O)OCC)c2ccccc12 (stereo partly drawn) | n
7) O=C1C(Cl)=C(N/N=c2/[nH][nH]/c(=N/NC3=C(Cl)C(=O)c4ccccc4C3=O)c3ccccc23)C(=O)c2ccccc21 | n
8) N#Cc1ncc(/N=C/c2ccc(N(CCCl)CCCl)cc2)s1 | n

----------
- System: CCRF-CEM leukemia
- assay-name: NCI tumour cell line growth inhibition, 48 h; in the data active = GI50 below about 0.43 µM; inactive = the rest
Classes used: True = active, False = inactive

1) N#CC(C#N)=Cc1ccc(-c2ccc(-c3nc4ccccc4s3)cc2)o1 | False
2) COc1cc2cc(C(=O)N3CC(CCl)c4c3cc(NC(=O)C(C)(C)c3ccccc3[N+](=O)[O-])c3ccccc43)[nH]c2c(OC)c1OC (centres undefined) | False
3) Nc1ncnc2sc(=S)c3c(c12)CCC3 | False
4) COc1cc2cc(Oc3ccc(NC(=O)Nc4ccc(Cl)c(C(F)(F)F)c4)cc3)c(C)nc2cc1OCCN1CCCCC1 | False
5) CCc1c(C)[nH]c(/C=C2\N=C(c3ccc[nH]3)C=C2OC)c1C | True
6) N#CSc1ncnc2nc[nH]c12 | False
7) CSc1nnc(CCSc2ccnc3c(C(F)(F)F)cccc23)o1 | False
8) O=C(CCN1CCCC1)Nc1ccc2c(NCc3ccc(F)cc3)c3ccccc3nc2c1 | False
9) Cc1cc(N2CCCCC2)nc(N(CCNc2ccnc3cc(Cl)ccc23)Cc2ccco2)n1 | False
10) CC12CCC=CC1CCC1C2CCC2(C)C(c3ccc(=O)oc3)CCC12O (centres undefined) | True
11) CC(C)(O)c1ccc(N2CCN(c3nnc(Cc4ccccc4)c4ccccc34)CC2)nc1 | False
12) CCOC(=O)Cc1c[nH]c(=S)[nH]c1=O | False
13) CCN1C(=O)N(CC)C2C1NN=c1s/c(=C3\C(=O)N(C(C)C)c4ccccc43)c(=O)n12 (centres undefined) | True
14) COc1cc2c(cc1OC)-c1ccc3cc4c(cc3c1N(CCN1CCCC1)C2)OCO4 | True

----------
- Test system: SF-295 CNS
- assay-name: NCI tumour cell line growth inhibition, 48 h
Item-by-item account of TGI
property-name: TGI

1. CC1(C)CCC2(C(=O)OC3OC(CO)C(O)C(O)C3O)CC[C@]3(C)C(=CCC4C5(C)CC[C@H](OC6OC(C(=O)O)C(O)C(O)C6O)C(C)(C)C5CCC43C)C2C1 (stereo partly specified) | > 50 µM
2. NC(=O)C(Nc1c(Cl)cccc1Cl)c1cc2cc(Br)ccc2nc1Cl (stereo unspecified) | > 100 µM
3. Fc1ccc(-c2nc3n(c2-c2ccncc2)CCS3)cc1 | > 25 µM
4. CCOC(=O)/C(O)=C(/C=N\C(=S)Nc1ccccc1Cl)C(=O)OCC | > 100 µM
5. O=C(O)CS(=O)(=O)C(c1ccccc1)c1ccccc1 | > 100 µM
6. NC(=O)[C@H]1CCN(c2ncnc(N)c2F)C[C@@H]1N1CCC[C@@H](Nc2cc(Cl)cc(C(F)(F)F)c2)C1=O | 41.8 µM
7. C=CCONC(=O)c1ccc(Cl)cc1 | > 100 µM
8. O=C1NC(N2CCOCC2)=N/C1=C\c1cccs1 | > 100 µM
9. CC1Oc2cc3c(-c4c(O)cc(O)c5c(O)c6c(cc45)OC(C)C(C)C6=O)c(O)cc(O)c3c(O)c2C(=O)C1C (stereo unspecified) | 0.49 µM
10. CCOC(=O)CSc1ccnc(=O)[nH]1 | > 100 µM
11. CCOC(=O)Cc1c[nH]c(=S)[nH]c1=O | > 100 µM
12. O=C(NCCCCCCNC(=O)c1cccc2ccccc12)c1cccc2ccccc12 | 3.4 µM
13. O=c1cc(CNc2cc(F)cc(F)c2)c2ccc(I)cc2[nH]1 | > 100 µM
14. c1csc(-c2cscc2-c2ccsc2)c1 | > 100 µM
15. O=C1C(Cl)=C(N/N=c2/[nH][nH]/c(=N/NC3=C(Cl)C(=O)c4ccccc4C3=O)c3ccccc23)C(=O)c2ccccc21 | 30.5 µM
16. O=C(c1ccc(Cl)cc1Cl)N(C(=O)N1CCC(c2ccccc2)CC1)c1ccccc1 | > 100 µM

----------
- System: OVCAR-3 ovarian
- assay-name: NCI tumour cell line growth inhibition, 48 h
Please enter 1.0 where TGI is greater than or equal to 40 µM, and 0.0 where it is lower.

1. c1ccc2nc(Cn3c[n+](Cc4ccc5ccccc5n4)c4ccccc43)ccc2c1 | 0.0
2. Oc1ccccc1/C=N/Nc1nnc2c3ccccc3c3ccccc3c2n1 | 1.0
3. N#CC1(C#N)C2CCCCC23OC(=N)C1(C#N)C(c1ccco1)O3 (configuration not stated) | 0.0
4. COc1ccccc1C1CC(=O)CC(c2ccccc2OC)C12C(=O)NC(=S)NC2=O (configuration not stated) | 1.0
5. Cn1c(O)c(C(=O)Nc2cccs2)c(=O)[nH]c1=S | 1.0
6. CCOC(=O)/C(O)=C(/C=N\C(=S)Nc1ccccc1Cl)C(=O)OCC | 1.0
7. C/C(CN1C(=O)c2ccccc2C1=O)=N\NS(=O)(=O)c1ccc(Br)cc1 | 1.0
8. COC12C=CC(CC1)c1c(O)ccc(O)c12 (configuration not stated) | 1.0
9. CN(C)c1ccc(/C=C/C=C\C2=CC(=C\C=C/C=C3C=CC(=[N+](C)C)C=C3)/Sc3ccccc32)cc1 | 1.0
10. COc1ccc(/C=C2/C(C)=NN(c3cccc(Cl)c3)/C2=N/c2nc3ccccc3s2)cc1 | 1.0
11. CC(C)(C(=O)NN)c1ccccc1 | 1.0
12. c1csc(-c2cscc2-c2ccsc2)c1 | 1.0
13. CN(C)c1ccc(-c2c(C#N)c(N)[nH]c(=S)c2C#N)cc1 | 1.0
14. O=C1C(Cl)=C(N/N=c2/[nH][nH]/c(=N/NC3=C(Cl)C(=O)c4ccccc4C3=O)c3ccccc23)C(=O)c2ccccc21 | 0.0
15. CCC[CH2][Sn]([CH2]CCC)([O]C(C)=O)[O]C(C)=O | 0.0
16. COc1ccccc1[N-]C(C1=C([O-])c2ccccc2C1=O)c1ccccc1.COc1ccccc1[N-]C(C1=C([O-])c2ccccc2C1=O)c1ccccc1.[Cu+2] (configuration not stated) | 1.0
17. CCN=C1C=CC(=C(c2ccc(N(C)C)cc2)c2ccc(N(C)C)cc2)c2ccccc21 | 0.0
18. Nc1cc(=O)[nH]c(SC2=NC(N)CC(O)C2)n1 (configuration not stated) | 1.0
19. Cc1ccc2c(c1)C1(C)OC(CC(N)C1O)O2 (configuration not stated) | 1.0
20. O=C(O)c1c[nH]c2c(Sc3ccccc3)nccc2c1=O | 1.0
21. Nc1ncnc2sc(=S)c3c(c12)CCC3 | 1.0

Reference source for all entries: PubChem BioAssay (NCI)
